Experiment: in vitro
Conditions: human, LC50
API: label(entry) gives Yes if the entry's CC50 at 48 h is strictly smaller than 50 µM; on equality or larger values it gives No.

{"Molecule": "O=C(/C=C/C=C/c1ccc(F)cc1)N1CCCCC1", "Answer Label": "Yes"}
{"Molecule": "COc1cc(/C=C/C(=O)N2CCC=CC2=O)cc(O)c1O [PL-18, Dihydroxy piperlongumine]", "Answer Label": "Yes"}
{"Molecule": "COc1ccc(/C=C/C=C/C(=O)N2CCCCC2)cc1", "Answer Label": "Yes"}
{"Molecule": "O=C(/C=C/C1CCCCC1)N1CCCCC1", "Answer Label": "No"}
{"Molecule": "CC(=O)Oc1ccc(/C=C/C=C/C(=O)N2CCCCC2)cc1", "Answer Label": "No"}
{"Molecule": "O=C(/C=C/C=C/c1ccccc1)N1CCCCC1", "Answer Label": "Yes"}
{"Molecule": "O=C1C=CCCN1C(=O)/C=C/c1cc(O)c(O)c(O)c1 [PL-25, trihydroxy piperlongumine]", "Answer Label": "Yes"}

* * *

Test system: L428 cells
Assay: in vitro
Conditions: human, 48 h
Experimental: The human Hodgkin's Lymphoma derived L428 cell line was used as a model. The cells were grown in RPMI Medium 1640 with 10% FBS, 1% Glutamine and pen-strep (all from Biological Industries, Israel). […] Absorbance was measured at 450 nm and 650 nm in an enzyme-linked immunosorbent assay (ELISA) plate reader (Multiskan Spectrum, Version 1.2), and recorded. […] Viability was determined in triplicate in two independent tests. […]
Observation Type: CC50 (µM)

{"Record Smiles": "O=C(/C=C/C=C/c1ccccc1)N1CCCCC1", "Numeric Result": 24.7}

* * *

System: L428 cells
Experiment: in vitro
Conditions: read-out: LC50; Table 5; L428 cells, 48 hrs
Observation Type: CC50

{"Molecule": "O=C(/C=C/C(=O)N1CCCCC1)c1ccc(F)c(F)c1 [CP-287]", "Result": "284 µM"}

* * *

Test system: L428 cells
Test: in vitro
Settings: read-out: LC50; L428 cells, 48 hrs

{"Record Smiles": "O=C(/C=C/C(=O)N1CCCCC1)c1ccc(F)c(F)c1", "CC50": "284 µM"}

* * *

System: L428 cells
Test: in vitro
Observation Type: Cytotoxic

{"Compound": "O=C(/C=C/c1ccc2c(c1)OCO2)N1CCCCC1", "Tgt": "L428 cells", "Result": "−"}
{"Compound": "O=C(/C=C/c1ccc([N+](=O)[O-])cc1)N1CCCCC1", "Tgt": "L428 cells", "Result": "−"}
{"Compound": "O=C(/C=C/C(=O)N1CCCCC1)c1ccc(F)c(F)c1", "Tgt": "L428 cells", "Result": "+"}
{"Compound": "O=C(/C=C/C=C/c1ccccc1)N1CCCCC1", "Tgt": "L428 cells", "Result": "+"}
{"Compound": "CC(=O)Oc1ccc(/C=C/C=C/C(=O)N2CCCCC2)cc1", "Tgt": "L428 cells", "Result": "+"}
{"Compound": "COc1cc(/C=C/C(=O)N2CCC=CC2=O)cc(O)c1O [PL-18, Dihydroxy piperlongumine]", "Tgt": "L428 cells", "Result": "+"}
{"Compound": "O=C(/C=C/C=C/c1ccc(F)cc1)N1CCCCC1", "Tgt": "L428 cells", "Result": "+"}
{"Compound": "COc1cc(/C=C/C=C/C(=O)N2CCCCC2)ccc1O", "Tgt": "L428 cells", "Result": "−"}
